systemName: PICK1, Q9NRD5
Sequence (Q9NRD5 17-115): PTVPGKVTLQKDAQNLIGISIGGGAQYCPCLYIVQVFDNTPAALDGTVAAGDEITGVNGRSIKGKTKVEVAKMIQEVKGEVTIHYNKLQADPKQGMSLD
methodDescription: holdup assay
Set-up: key: below the threshold = too weak to quantify, mostly under pKd 3.1 to 4
conditionDetails: plain residues with an end cap or a label only (N-terminal biotin on a linker: ttds)
endpointLabel: pKd

PSRDRKETSI [RALBP1, Q15311] | below the threshold
GRLLGLETNV [ARHGEF26, Q96DR7] | below the threshold
DLDEEEDTHL [PODXL, O00592] | below the threshold
